- Test System: Nuclear receptor subfamily 4 group A member 2 (Homo sapiens) (UniProt P43354)
- Sequence (P43354 whole entry, looked up): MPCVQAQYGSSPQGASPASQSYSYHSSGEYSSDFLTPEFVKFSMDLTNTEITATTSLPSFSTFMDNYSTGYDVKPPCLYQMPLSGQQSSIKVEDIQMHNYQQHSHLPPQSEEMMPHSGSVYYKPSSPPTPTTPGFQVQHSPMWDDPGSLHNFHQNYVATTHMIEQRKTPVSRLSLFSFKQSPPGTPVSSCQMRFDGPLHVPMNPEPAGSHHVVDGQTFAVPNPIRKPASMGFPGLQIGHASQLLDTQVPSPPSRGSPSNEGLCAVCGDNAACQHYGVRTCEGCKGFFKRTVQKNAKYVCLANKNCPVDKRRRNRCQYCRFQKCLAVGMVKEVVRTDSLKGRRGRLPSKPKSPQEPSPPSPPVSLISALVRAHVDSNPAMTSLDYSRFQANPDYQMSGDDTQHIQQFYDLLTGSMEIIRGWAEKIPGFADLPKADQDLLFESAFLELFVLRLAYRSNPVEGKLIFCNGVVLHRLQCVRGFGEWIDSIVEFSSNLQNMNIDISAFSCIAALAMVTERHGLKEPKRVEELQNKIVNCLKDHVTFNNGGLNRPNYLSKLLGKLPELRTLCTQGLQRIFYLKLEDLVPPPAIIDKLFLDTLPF
- Experimental Protocol: ATG_NURR1_TRANS: Attagene TRANS-FACTORIAL HepG2 Assay for human Nuclear Receptor Related Protein 1 (NURR1) (AID 2282985)
- Measurement Conditions: HepG2 Attagene TRANS reporter, mRNA readout
Results filed as inconclusive are left out. Active and inactive are the calls of the source. The calls were made as follows: active = hit-call score of the fitted dose curve at least 0.9, where 1 is the maximum; inconclusive = response in the unintended direction; inactive = score below 0.9.
Classes used: y for active, n for inactive

CN(C)c1ccc(C(=N)c2ccc(N(C)C)cc2)cc1: n
Cc1c(C)c([N+](=O)[O-])c(C(C)(C)C)c([N+](=O)[O-])c1C: y
O=Nc1ccc(O)cc1: n
CCCCCCCCCCC=CC#N: n
OCCN(CCO)c1ccccc1: n
Cc1ccc(C(C)(C)C)cc1: n
CC(C)(C)c1ccc(N)cc1: n
CC=C1CC2C=CC1C2 (stereo not drawn): n

Data provenance is PubChem BioAssay (EPA / NIEHS).
